Entry source: patent US20040175401A1

Assay: n-octanol/water partition coefficient LogPoct calculated from solubility data
Settings: calculated as logPoct = (0.99 - logSw)/1.34
LogPoct listing for selected molecules.
measurement-kind: LogPoct

>  <line-notation>
COc1ccc(-c2cc(=S)ss2)cc1

>  <result>
5.07

$$$$
>  <line-notation>
CC(C)(C)NC(=O)[C@@H]1C[C@@H]2CCCC[C@@H]2CN1C[C@@H](O)[C@H](Cc1ccccc1)NC(=O)[C@H](CC(N)=O)NC(=O)c1ccc2ccccc2n1

>  <result>
3.97

$$$$
>  <line-notation>
O=C1Nc2ccc(Cl)cc2[C@@](C#CC2CC2)(C(F)(F)F)O1

>  <result>
4.15

$$$$
>  <line-notation>
O=C1NC(=O)C2(CCCCCCCCCCC2)C(=O)N1

>  <result>
5.07

$$$$

###

LogPoct listing for selected molecules.
Assay: n-octanol/water partition coefficient LogPoct calculated from solubility data
Conditions: calculated as logPoct = (0.99 - logSw)/1.34
measurement-kind: LogPoct

>  <molecule>
C=C(C)C1CC=C(C)[C@@H](O)C1 (stereo partly shown)

>  <numeric-result>
2.14

$$$$
>  <molecule>
S=c1ccss1

>  <numeric-result>
2.59

$$$$
>  <molecule>
CCCC(C)C1(CC)C(=O)NC(=S)NC1=O (stereo not shown)

>  <numeric-result>
3.49

$$$$
>  <molecule>
CC(=O)Nc1nc2c(ncn2COCCO)c(=O)[nH]1

>  <numeric-result>
2.17

$$$$
>  <molecule>
CCC1(C)C(=O)NC(=O)NC1=O

>  <numeric-result>
1.66

$$$$
>  <molecule>
O=C1NC(=O)C(c2ccccc2)(c2ccccc2)N1

>  <numeric-result>
3.80

$$$$
>  <molecule>
CC1(C)C2CC3OC3(C)C1C2 (stereo not shown) [pinene_oxide]

>  <numeric-result>
2.67

$$$$
>  <molecule>
S=c1cc(-c2ccccc2)ss1

>  <numeric-result>
4.95

$$$$
>  <molecule>
O=C1NC(=O)C2(CCCCC2)C(=O)N1

>  <numeric-result>
3.02

$$$$
>  <molecule>
CC(C)Nc1cccnc1N1CCN(C(=O)c2cc3cc(NS(C)(=O)=O)ccc3[nH]2)CC1

>  <numeric-result>
4.29

$$$$

###

Test: n-octanol/water partition coefficient LogPoct calculated from solubility data
Details: calculated as logPoct = (0.99 - logSw)/1.34

>  <compound>
CCCCCCCC(=O)OCN1C(=O)NC(c2ccccc2)(c2ccccc2)C1=O

>  <LogPoct>
5.60

$$$$
>  <compound>
CC(=O)OCCOCn1cnc2c(=O)[nH]c(N)nc21

>  <LogPoct>
1.38

$$$$
>  <compound>
CC1(c2ccccc2)C(=O)NC(=O)NC1=O

>  <LogPoct>
2.51

$$$$
>  <compound>
C=CCC1(CC)C(=O)NC(=O)NC1=O

>  <LogPoct>
1.64

$$$$
>  <compound>
CC(C)C1(C(C)C)C(=O)NC(=O)NC1=O

>  <LogPoct>
2.81

$$$$
>  <compound>
O=C1NC(=O)C2(CCC2)C(=O)N1

>  <LogPoct>
1.98

$$$$
>  <compound>
C=CCC1(C)C(=O)NC(=O)NC1=O

>  <LogPoct>
1.60

$$$$
>  <compound>
C=CC(C)(O)CCC=C(C)C (stereo not shown)

>  <LogPoct>
2.23

$$$$
>  <compound>
C=CC(=C)CCC=C(C)C

>  <LogPoct>
3.41

$$$$
>  <compound>
C=C(C)C1CC=C(C)C(=O)C1 (stereo not shown)

>  <LogPoct>
1.99

$$$$
>  <compound>
CC(C)=CCC1(C(C)(C)C)C(=O)NC(=O)NC1=O

>  <LogPoct>
3.39

$$$$
>  <compound>
O=C1NC(=O)C2(CC2)C(=O)N1

>  <LogPoct>
2.15

$$$$
>  <compound>
CC(=O)Nc1nc2c(ncn2COCCOC(C)=O)c(=O)[nH]1

>  <LogPoct>
2.75

$$$$

###

LogPoct listing for selected molecules.
Experiment: n-octanol/water partition coefficient LogPoct calculated from solubility data
Details: calculated as logPoct = (0.99 - logSw)/1.34

>  <molecule>
CC(C)CN(C[C@@H](O)[C@H](Cc1ccccc1)NC(=O)O[C@H]1CCOC1)S(=O)(=O)c1ccc(N)cc1 [Amprenavir]

>  <LogPoct>
3.72

$$$$
>  <molecule>
O=C1NC(=O)C2(CCCCCCC2)C(=O)N1 [5,5-(CH2)7-barbituric acid]

>  <LogPoct>
2.96

$$$$
>  <molecule>
O=C1NC(=O)C2(CCCCCCCCCC2)C(=O)N1 [5,5-(CH2)10-barbituric acid]

>  <LogPoct>
4.16

$$$$
>  <molecule>
O=C1NC(=O)C(c2ccccc2)(c2ccccc2)C(=O)N1 [5,5-diphenylbarbituric acid]

>  <LogPoct>
3.87

$$$$
>  <molecule>
O=C1NC(=O)C2(CCCC2)C(=O)N1 [5,5-(CH2)4-barbituric acid]

>  <LogPoct>
3.97

$$$$
>  <molecule>
CC12CCC(C1)C(C)(C)C2O (stereo not drawn) [fenchyl_alcohol]

>  <LogPoct>
2.43

$$$$
>  <molecule>
O=C1NC(=S)NC(=O)C12CCCCC2 [5,5-(CH2)5-2-thiobarbituric acid]

>  <LogPoct>
3.32

$$$$
>  <molecule>
CCC1(CC)C(=O)NC(=S)NC1=O [5-diethyl-2-thiobarbituric acid]

>  <LogPoct>
2.36

$$$$
>  <molecule>
CCC1(CC=C(C)C)C(=O)NC(=O)NC1=O

>  <LogPoct>
2.42

$$$$
